- protocol_details: refractive index (Na D-line) (dimensionless)
- run_parameters: 303.15 K; 101.33 kPa; Liquid; Standard Abbe refractometry
I'd appreciate it if you could supply refractive index values for the items below.
Provide a numeric answer; units are not to be included.

[in] Need refractive index, item COS(=O)(=O)[O-].Cc1ccc[n+](C)c1 [1,3-dimethylpyridinium methyl sulfate]
[out] 1.51184

[in] Which refractive index value is on record for COS(=O)(=O)[O-].C[n+]1ccccc1 [1-methylpyridinium methylsulfate] ?
[out] 1.51162

[in] Consider the molecule CCc1cccc[n+]1C.COS(=O)(=O)[O-] [2-ethyl-1-methylpyridinium methyl sulfate] and give its measured refractive index.
[out] 1.5177

[in] Fill in: refractive index of CCOS(=O)(=O)[O-].CCc1cccc[n+]1CC [1,2-diethylpyridinium ethylsulfate] is ___
[out] 1.51192

###

I'd appreciate it if you could supply speed of sound values for the items below.
- run_parameters: 308.15 K; 101.33 kPa; Liquid; Sing-around technique in a fixed-path interferometer
Expressed in m/s, but write only the number.

[in] Any idea what speed of sound was measured for CCOS(=O)(=O)[O-].CCc1cccc[n+]1CC [1,2-diethylpyridinium ethylsulfate] ?
[out] 1718.6

[in] Using the record for COS(=O)(=O)[O-].C[n+]1ccccc1 [1-methylpyridinium methylsulfate] , report its speed of sound.
[out] 1852.6

[in] Would you mind telling me what speed of sound value was observed for COS(=O)(=O)[O-].Cc1ccc[n+](C)c1 [1,3-dimethylpyridinium methyl sulfate] ?
[out] 1797.5

[in] What does the record list as speed of sound for CCc1cccc[n+]1C.COS(=O)(=O)[O-] [2-ethyl-1-methylpyridinium methyl sulfate] ?
[out] 1830.5

###

- run_parameters: 318.15 K; 101.33 kPa; Liquid; Vibrating tube method
Kindly state mass density for each of the entries shown.
Value expressed in kg/m3; do not type the unit.

[in] // query mass density value for entry CCc1cccc[n+]1C.COS(=O)(=O)[O-] [2-ethyl-1-methylpyridinium methyl sulfate]
[out] 1271.15

[in] Entry COS(=O)(=O)[O-].Cc1ccc[n+](C)c1 [1,3-dimethylpyridinium methyl sulfate] has what mass density?
[out] 1289.07

[in] Which mass density reading was recorded for the compound CCOS(=O)(=O)[O-].CCc1cccc[n+]1CC [1,2-diethylpyridinium ethylsulfate] ?
[out] 1206.8

[in] Can you share its mass density? I mean this compound: COS(=O)(=O)[O-].C[n+]1ccccc1 [1-methylpyridinium methylsulfate]
[out] 1331.35

###

- run_parameters: 298.15 K; 101.33 kPa; Liquid; Sing-around technique in a fixed-path interferometer
Numbers after ± are expanded uncertainties.
value_type: speed of sound

[in] speed of sound lookup needed for CCOS(=O)(=O)[O-].CCc1cccc[n+]1CC [1,2-diethylpyridinium ethylsulfate] , thanks.
[out] 1745.6 ± 4.5 m/s

[in] Need speed of sound, item COS(=O)(=O)[O-].C[n+]1ccccc1 [1-methylpyridinium methylsulfate]
[out] 1876.4 ± 4.5 m/s

[in] Record request: speed of sound value, item CCc1cccc[n+]1C.COS(=O)(=O)[O-] [2-ethyl-1-methylpyridinium methyl sulfate]
[out] 1856 ± 4.5 m/s

[in] Quick one: speed of sound for COS(=O)(=O)[O-].Cc1ccc[n+](C)c1 [1,3-dimethylpyridinium methyl sulfate] ?
[out] 1822.2 ± 4.5 m/s

###

Field: viscosity. Provide a value for each of the compounds that follow.
- run_parameters: 313.15 K; 101.33 kPa; Liquid; Capillary tube (Ostwald / Ubbelohde) method
Write down the numeric answer in mPa·s and omit the unit.

[in] Which viscosity is listed for CCc1cccc[n+]1C.COS(=O)(=O)[O-] [2-ethyl-1-methylpyridinium methyl sulfate] ?
[out] 1728

[in] Look at this compound and give its reported viscosity. COS(=O)(=O)[O-].C[n+]1ccccc1 [1-methylpyridinium methylsulfate]
[out] 59.7

[in] Name the recorded viscosity for COS(=O)(=O)[O-].Cc1ccc[n+](C)c1 [1,3-dimethylpyridinium methyl sulfate] .
[out] 61.2

[in] Query (compound): CCOS(=O)(=O)[O-].CCc1cccc[n+]1CC [1,2-diethylpyridinium ethylsulfate] ; field requested: viscosity
[out] 135.5

###

- run_parameters: 293.15 K; 101.33 kPa; Liquid; Sing-around technique in a fixed-path interferometer
value_type: speed of sound (m/s)
Number in m/s, nothing else.

[in] Fill blank: measured speed of sound of the molecule CCc1cccc[n+]1C.COS(=O)(=O)[O-] [2-ethyl-1-methylpyridinium methyl sulfate] is ____.
[out] 1869.2

[in] Endpoint output: speed of sound of COS(=O)(=O)[O-].C[n+]1ccccc1 [1-methylpyridinium methylsulfate] . Value?
[out] 1888.6

[in] For COS(=O)(=O)[O-].Cc1ccc[n+](C)c1 [1,3-dimethylpyridinium methyl sulfate] , what is its reported speed of sound?
[out] 1834.9

[in] Bench note: what speed of sound did CCOS(=O)(=O)[O-].CCc1cccc[n+]1CC [1,2-diethylpyridinium ethylsulfate] show?
[out] 1759.3

###

- run_parameters: 293.15 K; 101.33 kPa; Liquid; Vibrating tube method
value_type: mass density (kg/m3)
Write the number in kg/m3 without appending the unit.

[in] What measured mass density goes with COS(=O)(=O)[O-].Cc1ccc[n+](C)c1 [1,3-dimethylpyridinium methyl sulfate] ?
[out] 1305.87

[in] Entry under review: CCOS(=O)(=O)[O-].CCc1cccc[n+]1CC [1,2-diethylpyridinium ethylsulfate] . Reported mass density?
[out] 1223.6

[in] Need mass density, item CCc1cccc[n+]1C.COS(=O)(=O)[O-] [2-ethyl-1-methylpyridinium methyl sulfate]
[out] 1288.3

[in] May I ask what mass density has been recorded for COS(=O)(=O)[O-].C[n+]1ccccc1 [1-methylpyridinium methylsulfate] ?
[out] 1348.22

###

- protocol_details: refractive index (Na D-line) (dimensionless)
- run_parameters: 298.15 K; 101.33 kPa; Liquid; Standard Abbe refractometry
value_type: refractive index
# print the numeric value only

[in] Which value of refractive index has been reported for COS(=O)(=O)[O-].Cc1ccc[n+](C)c1 [1,3-dimethylpyridinium methyl sulfate] in the records?
[out] 1.5133

[in] Please give the measured refractive index for this compound: CCOS(=O)(=O)[O-].CCc1cccc[n+]1CC [1,2-diethylpyridinium ethylsulfate]
[out] 1.51328

[in] // query refractive index value for entry CCc1cccc[n+]1C.COS(=O)(=O)[O-] [2-ethyl-1-methylpyridinium methyl sulfate]
[out] 1.51902

[in] # get_value(readout='refractive index', item= COS(=O)(=O)[O-].C[n+]1ccccc1 [1-methylpyridinium methylsulfate] )
[out] 1.51296

###

Provide the reported refractive index of each item.
- protocol_details: refractive index (Na D-line) (dimensionless)
- run_parameters: 308.15 K; 101.33 kPa; Liquid; Standard Abbe refractometry
Kindly provide the number alone.

[in] Given the molecule COS(=O)(=O)[O-].Cc1ccc[n+](C)c1 [1,3-dimethylpyridinium methyl sulfate] , what is its reported refractive index?
[out] 1.51051

[in] Query (molecule): CCc1cccc[n+]1C.COS(=O)(=O)[O-] [2-ethyl-1-methylpyridinium methyl sulfate] ; field requested: refractive index
[out] 1.5164

[in] So what's the measured refractive index for this one? COS(=O)(=O)[O-].C[n+]1ccccc1 [1-methylpyridinium methylsulfate]
[out] 1.51029

[in] Can you share its refractive index? I mean this molecule: CCOS(=O)(=O)[O-].CCc1cccc[n+]1CC [1,2-diethylpyridinium ethylsulfate]
[out] 1.51057

###

- run_parameters: 343.15 K; 101.33 kPa; Liquid; Sing-around technique in a fixed-path interferometer
value_type: speed of sound (m/s)
Dear colleague, please return just the value in m/s, with no unit written.

[in] Param item = COS(=O)(=O)[O-].C[n+]1ccccc1 [1-methylpyridinium methylsulfate] ; retrieve measured speed of sound.
[out] 1772.8

[in] I'd like to know its speed of sound. The molecule in question is COS(=O)(=O)[O-].Cc1ccc[n+](C)c1 [1,3-dimethylpyridinium methyl sulfate]
[out] 1715.6

[in] What value of speed of sound has been reported for the following molecule? CCOS(=O)(=O)[O-].CCc1cccc[n+]1CC [1,2-diethylpyridinium ethylsulfate]
[out] 1632.7

[in] Endpoint output: speed of sound of CCc1cccc[n+]1C.COS(=O)(=O)[O-] [2-ethyl-1-methylpyridinium methyl sulfate] . Value?
[out] 1747

###

Give viscosity for every item shown.
- run_parameters: 338.15 K; 101.33 kPa; Liquid; Capillary tube (Ostwald / Ubbelohde) method
Quick note: give the figure in mPa·s, leave out the unit.

[in] Need viscosity, item COS(=O)(=O)[O-].Cc1ccc[n+](C)c1 [1,3-dimethylpyridinium methyl sulfate]
[out] 24.58

[in] Which viscosity is listed for CCc1cccc[n+]1C.COS(=O)(=O)[O-] [2-ethyl-1-methylpyridinium methyl sulfate] ?
[out] 528

[in] Fill blank: measured viscosity of the compound CCOS(=O)(=O)[O-].CCc1cccc[n+]1CC [1,2-diethylpyridinium ethylsulfate] is ____.
[out] 45.6

[in] What measured viscosity goes with COS(=O)(=O)[O-].C[n+]1ccccc1 [1-methylpyridinium methylsulfate] ?
[out] 26.16
